measured-on: hmGluR5a receptor (Homo sapiens (Human), UniProt P41594)
Sequence (P41594 other isoform, or with tags, fused parts or gaps): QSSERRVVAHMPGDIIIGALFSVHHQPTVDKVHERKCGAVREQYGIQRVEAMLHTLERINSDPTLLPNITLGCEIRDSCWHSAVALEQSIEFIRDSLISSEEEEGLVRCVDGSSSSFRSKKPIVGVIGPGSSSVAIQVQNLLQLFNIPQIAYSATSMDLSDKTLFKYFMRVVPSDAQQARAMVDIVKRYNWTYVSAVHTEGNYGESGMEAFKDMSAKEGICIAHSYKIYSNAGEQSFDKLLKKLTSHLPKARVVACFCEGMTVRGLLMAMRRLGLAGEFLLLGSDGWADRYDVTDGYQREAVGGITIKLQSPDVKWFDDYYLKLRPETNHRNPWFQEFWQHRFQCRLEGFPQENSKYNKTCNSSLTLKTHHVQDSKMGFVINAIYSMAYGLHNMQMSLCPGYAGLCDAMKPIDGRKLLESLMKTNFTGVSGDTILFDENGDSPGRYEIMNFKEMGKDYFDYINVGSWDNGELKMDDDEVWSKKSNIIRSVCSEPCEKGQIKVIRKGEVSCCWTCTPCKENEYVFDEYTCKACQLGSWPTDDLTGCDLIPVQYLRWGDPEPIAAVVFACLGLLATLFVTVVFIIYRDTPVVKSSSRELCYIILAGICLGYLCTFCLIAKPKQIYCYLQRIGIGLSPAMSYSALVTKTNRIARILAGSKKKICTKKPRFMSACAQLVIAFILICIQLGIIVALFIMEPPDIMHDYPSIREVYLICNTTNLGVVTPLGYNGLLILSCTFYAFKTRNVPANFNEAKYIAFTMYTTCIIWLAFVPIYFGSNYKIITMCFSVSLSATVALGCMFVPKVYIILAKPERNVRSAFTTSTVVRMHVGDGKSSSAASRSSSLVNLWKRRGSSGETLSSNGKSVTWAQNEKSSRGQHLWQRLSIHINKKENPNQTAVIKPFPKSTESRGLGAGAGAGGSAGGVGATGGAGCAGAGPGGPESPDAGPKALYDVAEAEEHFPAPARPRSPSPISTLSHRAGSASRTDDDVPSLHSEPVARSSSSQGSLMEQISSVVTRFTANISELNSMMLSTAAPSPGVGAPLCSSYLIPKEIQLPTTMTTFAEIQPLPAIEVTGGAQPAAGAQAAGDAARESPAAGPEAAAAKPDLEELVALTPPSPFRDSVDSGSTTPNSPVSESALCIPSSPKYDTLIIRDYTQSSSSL
test-name: Calcium Flux Assay
condition-set: hmGluR5a/L38-20 cells, glutamate-evoked [Ca2+]i
For each of the compounds below, state its pIC50.
Give bare numbers, as −log10 of the molar value.

INSERT INTO measurements (compound, measured_result) VALUES
  ('Cc1nc(C#Cc2cnc(NC3CCCC3)nc2)cs1', 8.70),
  ('Cc1nc(C#Cc2ccc(N3CCCCC3)nc2)cs1', 8.74),
  ('Cc1cncc(C#Cc2csc(C)n2)c1', 8.52),
  ('Cc1nc(C#Cc2ccc(-c3cccc(Cl)c3C)nc2)cs1', 8.22),
  ('Cc1nc(C#Cc2ccc(N3C4CCC3CC4)nc2)cs1', 8.10);

Please report pIC50 for every entry that follows.
1. Cc1nc(C#Cc2ccc(N3CCC(C)CC3)nc2)cs1
2. Cc1nc(C#Cc2cnc(N3CCCCC3CO)nc2)cs1 (stereo not drawn)

stdout:
1: 8.52; 2: 7.80

Please report pIC50 for every entry that follows.
1. Cc1nc(C#Cc2ccc(C3CCCCC3)nc2)cs1
2. Cc1nc(C#Cc2ccc(-c3cccc(CO)c3)nc2)cs1
3. Cc1nc(C#Cc2ccc(-c3ccccc3C)nc2)cs1
4. CCC(CC)Nc1ccc(C#Cc2csc(C)n2)cn1
5. Cc1nc(C#Cc2cncc(N(C)c3cccnc3)c2)cs1
6. Cc1nc(C#Cc2cnc(OC(C)C)nc2)cs1
7. COCc1ccccc1-c1ccc(C#Cc2csc(C)n2)cn1
8. Cc1nc(C#Cc2ccc(C3CC4CCC3C4)nc2)cs1 (stereo not drawn)

stdout:
[8.66, 8.15, 8.20, 8.30, 8.52, 8.85, 8.30, 8.40]

Please report pIC50 for every entry that follows.
1. Cc1nc(C#Cc2cnc(N3CC=CC3)nc2)cs1
2. Cc1nc(C#Cc2ccc(N3CCCCCC3)nc2)cs1
3. C=Cc1cncc(C#Cc2csc(C)n2)c1
4. Cc1nc(C#Cc2ccc(N3CCCC3)nc2)cs1
5. Cc1nc(C#Cc2ccc(N3CC4CCC3C4)nc2)cs1 (stereo not drawn)
6. Cc1nc(C#Cc2ccc(-c3c(C)cccc3C)nc2)cs1
7. Cc1nc(C#Cc2cnc(NC(C)(C)C)nc2)cs1 [Example 105]

stdout:
1. 8.82
2. 8.15
3. 8.52
4. 8.30
5. 8.40
6. 7.85
7. 9.00

Please report pIC50 for every entry that follows.
1. Cc1nc(C#Cc2ccc(-c3cccc(F)c3)nc2)cs1
2. Cc1nc(C#Cc2ccc(N3CCCC3C)nc2)cs1 (stereo not drawn)
3. CCN(CC)c1ncc(C#Cc2csc(C)n2)cn1
4. Cc1nc(C#Cc2cncc(Nc3cccnc3)c2)cs1

stdout:
1. 9.05
2. 9.00
3. 8.40
4. 7.96
